Test system: heat-induced edema in the anesthetized rat's paw
protocol: Suppression of heat-induced edema in the anesthetized rat's paw (anti-inflammatory)
Type: in vivo
stated.conditions: i.v.; suppression of heat-induced edema in the anesthetized rat's paw
Square brackets hold non-standard residues; d marks the D form. Peptide text beside a SMILES is read from it. * marks the point of attachment. Benzoyl(4-OMe) = COc1ccc(C(=O)*)cc1; d2Thi = N[C@H](Cc1cccs1)C(=O)O
Exercise: for every item that follows, state its recorded Anti-Inflammatory ED50.

Consider CC[C@H](C)[C@H](NC(=O)[C@@H](Cc1cccs1)NC(=O)[C@H](CC(C)C)NC(=O)[C@H](CC(C)C)NC(=O)[C@H](CCCCN)NC(=O)[C@H](CCCNC(=N)N)NC(=O)c1ccc(OC)cc1)C(=O)N[C@H](CC(C)C)C(N)=O [mystixin-7] ({Benzoyl(4-OMe)}-RKLL[d2Thi]I[dL]-NH2) . Its measured Anti-Inflammatory ED50 is 0.02 (0.014-0.059) mg/kg

GET /value?item= CC[C@H](C)[C@H](NC(=O)[C@@H](C)NC(=O)[C@H](CC(C)C)NC(=O)[C@H](CC(C)C)NC(=O)[C@H](CCCCN)NC(=O)[C@H](CCCNC(=N)N)NC(=O)c1ccc(OC)cc1)C(=O)N[C@H](CC(C)C)C(N)=O [S-164] ({Benzoyl(4-OMe)}-RKLL[dA]I[dL]-NH2) &field=Anti-Inflammatory ED50 returns 0.42 (0.18-0.96) mg/kg

Per the record, CC[C@H](C)[C@H](NC(=O)[C@@H](Cc1cccs1)NC(=O)[C@H](CC(C)C)NC(=O)[C@H](C)NC(=O)[C@H](CCCCN)NC(=O)[C@H](CCCNC(=N)N)NC(=O)c1ccc(OC)cc1)C(=O)N[C@H](CC(C)C)C(N)=O [S-160] ({Benzoyl(4-OMe)}-RKAL[d2Thi]I[dL]-NH2) has Anti-Inflammatory ED50 of 0.18 (0.07-0.49) mg/kg

Consider CC[C@H](C)[C@H](NC(=O)[C@@H](Cc1cccs1)NC(=O)[C@H](CC(C)C)NC(=O)[C@H](CC(C)C)NC(=O)[C@H](CCCCN)NC(=O)[C@H](C)NC(=O)c1ccc(OC)cc1)C(=O)N[C@H](CC(C)C)C(N)=O [S-118] ({Benzoyl(4-OMe)}-AKLL[d2Thi]I[dL]-NH2) . Its measured Anti-Inflammatory ED50 is 0.035 (0.012-0.10) mg/kg

For CC[C@H](C)[C@H](NC(=O)[C@@H](Cc1cccs1)NC(=O)[C@H](CC(C)C)NC(=O)[C@H](CC(C)C)NC(=O)[C@H](CCCCN)NC(=O)[C@H](CCCNC(=N)N)NC(=O)c1ccc(OC)cc1)C(=O)N[C@H](C)C(N)=O [S-162] ({Benzoyl(4-OMe)}-RKLL[d2Thi]I[dA]-NH2) the molecule record lists Anti-Inflammatory ED50 as 0.24 (0.11-0.50) mg/kg

For this molecule ( CC[C@H](C)[C@H](NC(=O)[C@@H](Cc1cccs1)NC(=O)[C@H](CC(C)C)NC(=O)[C@H](CC(C)C)NC(=O)[C@H](C)NC(=O)[C@H](CCCNC(=N)N)NC(=O)c1ccc(OC)cc1)C(=O)N[C@H](CC(C)C)C(N)=O [S-166] ({Benzoyl(4-OMe)}-RALL[d2Thi]I[dL]-NH2) ), measured Anti-Inflammatory ED50 is >2 mg/kg

Value of Anti-Inflammatory ED50 reported for the molecule CC[C@H](C)[C@H](NC(=O)[C@@H](Cc1c[nH]c2ccccc12)NC(=O)[C@H](CC(C)C)NC(=O)[C@H](CC(C)C)NC(=O)[C@H](CCCCN)NC(=O)[C@H](CCCNC(=N)N)NC(=O)c1ccc(OC)cc1)C(=O)N[C@H](CC(C)C)C(N)=O [S-117] ({Benzoyl(4-OMe)}-RKLL[dW]I[dL]-NH2) is 0.16 (0.050-0.40) mg/kg

====

Test system: heat-induced edema in the anesthetized rat's paw
protocol: Suppression of heat-induced edema in the anesthetized rat's paw (anti-inflammatory)
Type: in vivo
stated.conditions: i.v.; suppression of heat-induced edema in the anesthetized rat's paw
Square brackets hold non-standard residues; d marks the D form. Peptide text beside a SMILES is read from it. * marks the point of attachment. Benzoyl(4-OMe) = COc1ccc(C(=O)*)cc1; d2Thi = N[C@H](Cc1cccs1)C(=O)O
Hi there, I'd appreciate the recorded Anti-Inflammatory ED50 for every entry that follows.

Documented Anti-Inflammatory ED50 of CC[C@H](C)[C@H](NC(=O)[C@@H](Cc1ccc(O)cc1)NC(=O)[C@H](CC(C)C)NC(=O)[C@H](CC(C)C)NC(=O)[C@H](CCCCN)NC(=O)[C@H](CCCNC(=N)N)NC(=O)c1ccc(OC)cc1)C(=O)N[C@H](CC(C)C)C(N)=O [S-116] ({Benzoyl(4-OMe)}-RKLL[dY]I[dL]-NH2) : 0.080 (0.03-0.20) mg/kg

Data point: COc1ccc(C(=O)N[C@@H](CCCNC(=N)N)C(=O)N[C@@H](CCCCN)C(=O)N[C@@H](CC(C)C)C(=O)N[C@@H](CC(C)C)C(=O)N[C@H](Cc2cccs2)C(=O)N[C@@H](C)C(=O)N[C@H](CC(C)C)C(N)=O)cc1 [S-163] ({Benzoyl(4-OMe)}-RKLL[d2Thi]A[dL]-NH2) ; Anti-Inflammatory ED50 = 0.067 (0.030-0.15) mg/kg

Reported Anti-Inflammatory ED50 for CC[C@H](C)[C@H](NC(=O)[C@@H](Cc1cccs1)NC(=O)[C@H](C)NC(=O)[C@H](CC(C)C)NC(=O)[C@H](CCCCN)NC(=O)[C@H](CCCNC(=N)N)NC(=O)c1ccc(OC)cc1)C(=O)N[C@H](CC(C)C)C(N)=O [S-165] ({Benzoyl(4-OMe)}-RKLA[d2Thi]I[dL]-NH2) was 0.046 (0.015-0.14) mg/kg

====

Test system: heat-induced edema in the anesthetized rat's paw
protocol: Suppression of heat-induced edema in the anesthetized rat's paw (anti-inflammatory)
Format: in vivo
stated.conditions: i.v.; suppression of heat-induced edema in the anesthetized rat's paw
Square brackets hold non-standard residues; d marks the D form. Peptide text beside a SMILES is read from it. * marks the point of attachment. d2Nal = N[C@H](Cc1ccc2ccccc2c1)C(=O)O; Benzoyl(4-OMe) = COc1ccc(C(=O)*)cc1; d2Thi = N[C@H](Cc1cccs1)C(=O)O
experimental.endpoint: Anti-Inflammatory ED50

Quick note, Anti-Inflammatory ED50 for CC[C@H](C)[C@H](NC(=O)[C@@H](Cc1ccc2ccccc2c1)NC(=O)[C@H](CC(C)C)NC(=O)[C@H](CC(C)C)NC(=O)[C@H](CCCCN)NC(=O)[C@H](CCCNC(=N)N)NC(=O)c1ccc(OC)cc1)C(=O)N[C@H](CC(C)C)C(N)=O [S-114] ({Benzoyl(4-OMe)}-RKLL[d2Nal]I[dL]-NH2) landed at 0.38 (0.16-0.91) mg/kg

For this molecule ( CC[C@H](C)[C@H](NC(=O)[C@@H](Cc1cccs1)NC(=O)[C@H](CC(C)C)NC(=O)[C@H](CC(C)C)NC(=O)[C@H](CCCCN)NC(=O)[C@H](C)NC(=O)c1ccc(OC)cc1)C(=O)N[C@H](CC(C)C)C(N)=O [S-167] ({Benzoyl(4-OMe)}-AKLL[d2Thi]I[dL]-NH2) ), measured Anti-Inflammatory ED50 is >2 mg/kg

meta.source: patent US6953779B2
